Experiment: Lipophilicity, log D at pH 7.4
Format: physicochemical
Settings: buffer
Assignment: determine reported logD for the given compounds.

NC[C@]1(CC(=O)O)C[C@H]2CCC[C@H]21    -1

Consider now this further compound.
Ask | Reported logD for NC[C@]1(CC(=O)O)C[C@H]2CC[C@H]2C1 : what is it?
Reply | -1

###

Biological target: Voltage-dependent calcium channel alpha2delta subunit (Sus scrofa, UniProt O77773)
Sequence (O77773 whole entry): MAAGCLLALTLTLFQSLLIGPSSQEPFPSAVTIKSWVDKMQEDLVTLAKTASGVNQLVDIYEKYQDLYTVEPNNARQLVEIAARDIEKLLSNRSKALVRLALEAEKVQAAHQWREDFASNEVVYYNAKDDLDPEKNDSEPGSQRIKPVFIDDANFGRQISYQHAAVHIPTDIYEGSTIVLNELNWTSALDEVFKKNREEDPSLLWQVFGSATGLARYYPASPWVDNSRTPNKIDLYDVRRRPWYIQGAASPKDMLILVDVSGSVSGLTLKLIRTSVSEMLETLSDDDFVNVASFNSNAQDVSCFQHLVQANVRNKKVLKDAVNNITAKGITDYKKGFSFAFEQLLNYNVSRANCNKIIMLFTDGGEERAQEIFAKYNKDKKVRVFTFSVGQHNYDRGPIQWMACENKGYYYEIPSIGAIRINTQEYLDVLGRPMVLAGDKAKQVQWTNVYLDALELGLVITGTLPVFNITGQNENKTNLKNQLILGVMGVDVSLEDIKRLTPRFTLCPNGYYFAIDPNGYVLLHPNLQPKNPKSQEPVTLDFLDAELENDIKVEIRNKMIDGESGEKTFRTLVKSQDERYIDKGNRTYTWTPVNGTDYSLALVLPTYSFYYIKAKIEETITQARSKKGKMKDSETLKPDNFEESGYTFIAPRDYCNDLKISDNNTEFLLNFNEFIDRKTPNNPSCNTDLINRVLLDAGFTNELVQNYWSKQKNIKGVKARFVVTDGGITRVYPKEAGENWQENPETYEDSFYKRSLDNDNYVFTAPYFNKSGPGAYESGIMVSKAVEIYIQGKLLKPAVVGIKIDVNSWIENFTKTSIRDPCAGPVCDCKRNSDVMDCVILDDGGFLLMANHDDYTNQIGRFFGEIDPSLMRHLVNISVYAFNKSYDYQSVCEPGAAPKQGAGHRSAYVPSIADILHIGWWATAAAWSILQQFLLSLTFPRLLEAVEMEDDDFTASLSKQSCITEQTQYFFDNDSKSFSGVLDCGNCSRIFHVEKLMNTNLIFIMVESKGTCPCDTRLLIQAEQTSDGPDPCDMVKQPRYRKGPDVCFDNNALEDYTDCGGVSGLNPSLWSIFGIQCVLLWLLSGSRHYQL
Assay: Displacement of [3H]gabapentin from calcium channel alpha2delta in pig cerebral cortex membrane after 30 mins
Experimental Readout: log10 of IC50 (log10 of the value in µM)
Give log10 of IC50, with IC50 taken in µM.

// for each compound in input: emit log10 of IC50
1. C[C@H]1CC(CN)(CC(=O)O)C[C@@H]1C (relative stereo) [ATAGABALIN]
2. NC[C@]1(CC(=O)O)CCC2CCCC21 (mixture of isomers)
3. NC[C@@]1(CC(=O)O)CC2CCCC21 (mixture of isomers)
4. NC[C@@]1(CC(=O)O)C[C@@H]2CCC[C@@H]21
5. NC[C@]1(CC(=O)O)C[C@H]2CCC[C@H]21

Reply |
1. -1.66
2. 0.86
3. 0.45
4. -1.72
5. -1.34

Value source: ChEMBL document CHEMBL1153228
